- measurement.target: GABA-A receptor; anion channel (Rattus norvegicus) (UniProt O09028+P15431+P18506+P18508+P19969+P20236+P23574+P23576+P28471+P28473+P30191+P62813+P63079+P63138+Q91ZM7+Q9ES14)
- assay.comment: Displacement of [3H]flunitrazepam from GABA-A receptor of rat brain membrane preparations at 10 uM
# if value of Displacement reaches 20%, tag Y; if it stays below, tag N

[[record]]
smiles_structure = "O=C1C=C[C@@H]([C@@H]2c3ccccc3CCN2C(=O)OCc2ccccc2)O1"
class_label = "Y"

[[record]]
smiles_structure = "COc1cc2c(cc1OC)[C@@H]([C@H]1C=CC(=O)O1)N(C(=O)OCc1ccccc1)CC2"
class_label = "N"

[[record]]
smiles_structure = "CC1=C[C@@H]([C@@H]2c3ccccc3CCN2C(=O)OCc2ccccc2)OC1=O"
class_label = "Y"

[[record]]
smiles_structure = "CC1=C[C@H]([C@@H]2c3cc4c(cc3CCN2C)OCO4)OC1=O"
class_label = "N"


* * *

- measurement.target: GABA-A receptor; anion channel (Rattus norvegicus) (UniProt O09028+P15431+P18506+P18508+P19969+P20236+P23574+P23576+P28471+P28473+P30191+P62813+P63079+P63138+Q91ZM7+Q9ES14)
- assay.comment: In vitro displacement of [3H]muscimol from Gamma-aminobutyric acid A receptor of rat brain membrane preparations at 100 uM
readout: Displacement (%)

[[record]]
smiles_structure = "COc1cc2c(cc1OC)[C@@H]([C@@H]1C=C(C)C(=O)O1)N(C)CC2"
readout = "Displacement"
result_value = 4

[[record]]
smiles_structure = "COc1cc2c(cc1OC)[C@@H]([C@@H]1C=CC(=O)O1)N(C(=O)OCc1ccccc1)CC2"
readout = "Displacement"
result_value = -1

[[record]]
smiles_structure = "CN1C(=O)CN=C(c2ccccc2)c2cc(Cl)ccc21"
readout = "Displacement"
result_value = -13

[[record]]
smiles_structure = "O=C1CC[C@@H]([C@@H]2c3ccccc3CCN2C(=O)OCc2ccccc2)O1"
readout = "Displacement"
result_value = -2

[[record]]
smiles_structure = "CC1=C[C@@H]([C@@H]2c3cc4c(cc3CCN2C)OCO4)OC1=O"
readout = "Displacement"
result_value = 3

[[record]]
smiles_structure = "O=C1C=C[C@H]([C@@H]2c3ccccc3CCN2C(=O)OCc2ccccc2)O1"
readout = "Displacement"
result_value = -2

[[record]]
smiles_structure = "O=C1C=C[C@@H]([C@@H]2c3ccccc3CCN2C(=O)OCc2ccccc2)O1"
readout = "Displacement"
result_value = -13

